Just for reference, patent US20220265629A1 is where these values come from.

- assay text: Single ascending oral dose study in healthy volunteers: plasma pharmacokinetics
- Assay type: in vivo, human
- measurement context: human, plasma, oral, 24 Hours Postdose; 350 mg + 525 mg; read-out: Plasma concentration, Geometric Mean
property name: concentration at 24 h

Quick note, concentration at 24 h for Cn1cc(S(=O)(=O)[C@@](C)(F)C2CCN(C(=O)Nc3ccon3)CC2)c(C(F)F)n1 landed at 1230 ng/mL

---

- assay text: Single ascending oral dose study in healthy volunteers: plasma pharmacokinetics
- Assay type: in vivo, human
- measurement context: human, plasma, oral, 24 Hours Postdose; 350 mg + 525 mg; read-out: Plasma concentration, Mean
- Source text: This example describes the first-in-human study of Compound I. Based on its mechanism of action, Compound I may offer a targeted therapy for patients with DCM caused by genetic or nongenetic mechanisms. […] The concentrations of Compound I in human plasma and urine were quantitated by high performance liquid chromatography with tandem mass spectrometric detection (LC MS/MS) (Biological sample analysis study report Alturas AD17-726). […]
property name: concentration at 24 h (ng/mL)
Enter your answer as a number in ng/mL; do not include the unit.

Quick note, concentration at 24 h for Cn1cc(S(=O)(=O)[C@@](C)(F)C2CCN(C(=O)Nc3ccon3)CC2)c(C(F)F)n1 [Compound I] landed at 1280
